PROTOCOL_DESCRIPTION: qHTS assay to test for compound auto fluorescence at 535 nm (green) in HEK293 cells (AID 720680)
MEASUREMENT_CONDITIONS: green autofluorescence 485/535 nm; series mostly up to 46 µM
Source text: U.S. Tox21 Program National Center for Advancing Translational Sciences [NCATS] NIH Chemical Genomics Center [NCGC] U.S. Environmental Protection Agency [EPA] National Institutes of Environmental Health Sciences [NIEHS] National Toxicology Program [NTP] U.S. Food and Drug Administration [FDA] Tox21 Assay Overview: Compound auto fluorescence often interferes with screening of the compound library against various biological targets and signaling pathways. […] This assay includes the green fluorescence data. […]
Active and inactive are the calls of the source. Calls come from the whole dose curve; as a rule, active = well fitted curve in the direction sought with a large enough effect in the repeat runs; inconclusive = weak or mixed curves; inactive = flat fitted curve, though single readings scatter.
MEASURE_NAME: outcome

Some solved entries appear below for comparison.
>  <COMPOUND>
CO[C@H]1C[C@H](O[C@H]2[C@H](C)O[C@@H](O[C@@H]3/C(C)=C/C[C@@H]4C[C@@H](C[C@]5(C=C[C@H](C)[C@@H](C6CCCCC6)O5)O4)OC(=O)[C@@H]4C=C(C)[C@@H](O)[C@H]5OC/C(=C\C=C\[C@@H]3C)[C@]54O)C[C@@H]2OC)O[C@@H](C)[C@@H]1O

>  <outcome>
inactive

$$$$
>  <COMPOUND>
C=C1c2c(Cl)ccc(O)c2C(O)=C2C(=O)[C@]3(O)C(O)=C(C(N)=O)C(=O)[C@@H](N(C)C)[C@@H]3[C@@H](O)[C@H]12

>  <outcome>
inactive

$$$$
>  <COMPOUND>
CC(C)CCCC(C)NC(C)C (stereo unspecified)

>  <outcome>
inactive

$$$$
>  <COMPOUND>
CC(C)(C)NCC(O)CSc1nc(-c2ccc(C(N)=O)s2)cs1 (stereo unspecified)

>  <outcome>
inactive

$$$$
>  <COMPOUND>
CCC[C@@H]1C[C@@H](C(=O)N[C@@H]([C@H]2O[C@H](SC)[C@H](O)[C@@H](O)[C@H]2O)[C@H](C)Cl)N(C)C1

>  <outcome>
inactive

$$$$

Note: attention shifts to another entry.
Task: Hello, please tell me recorded outcome for this one: `CCC(=O)OCC(=O)[C@@]1(OC(=O)CC)[C@H](C)C[C@H]2[C@H]3[C@H]([C@@H](O)C[C@@]21C)[C@@]1(C)C=CC(=O)C=C1C[C@H]3Cl`
Output: inactive

====

PROTOCOL_DESCRIPTION: qHTS assay to test for compound auto fluorescence at 535 nm (green) in HEK293 cell free culture (AID 720682)
MEASUREMENT_CONDITIONS: cell-free medium, green autofluorescence 485/535 nm; series mostly up to 46 µM
The source made the active and inactive calls. Calls come from the whole dose curve; as a rule, active = well fitted curve in the direction sought with a large enough effect in the repeat runs; inconclusive = weak or mixed curves; inactive = flat fitted curve, though single readings scatter.
Reply using exactly one outcome from TRUE for active, FALSE for inactive

Task: Hello, I am checking results. What call was entered for `CCC(=O)OCC(=O)[C@@]1(OC(=O)CC)[C@H](C)C[C@H]2[C@@H]3CCC4=CC(=O)C=C[C@]4(C)[C@@]3(F)[C@@H](O)C[C@@]21C` ?
Output: FALSE

Task: Hello, I am checking results. What call was entered for `C=C1CC[C@@H]2[C@](C)(CO)[C@H](O)CC[C@@]2(C)[C@@H]1C/C=C1/C(=O)OC[C@H]1O` ?
Output: FALSE

Task: Hello, I am checking results. What call was entered for `O=C(O)c1c(Cl)c(Cl)c(Cl)c(Cl)c1-c1c2cc(I)c(=O)c(I)c-2oc2c(I)c(O)c(I)cc12` ?
Output: FALSE

Task: Hello, I am checking results. What call was entered for `O=C(OC[C@H]1O[C@](O)(COC(=O)c2cccnc2)[C@@H](OC(=O)c2cccnc2)[C@@H]1OC(=O)c1cccnc1)c1cccnc1` ?
Output: FALSE

Task: Hello, I am checking results. What call was entered for CCN1C(=O)NC(c2ccccc2)C1=O (configuration not stated) ?
Output: FALSE

Task: Hello, I am checking results. What call was entered for `CC[C@H]1NC(=O)[C@@H](NC(=O)c2ncccc2O)[C@@H](C)OC(=O)[C@H](c2ccccc2)NC(=O)[C@@H]2CC(=O)CCN2C(=O)[C@H](Cc2ccccc2)N(C)C(=O)[C@@H]2CCCN2C1=O` ?
Output: FALSE

Task: Hello, I am checking results. What call was entered for `CCC(=O)OCC(=O)[C@@]1(OC(=O)CC)[C@@H](C)C[C@H]2[C@@H]3CCC4=CC(=O)C=C[C@]4(C)[C@@]3(F)[C@@H](O)C[C@@]21C` ?
Output: FALSE

Task: Hello, I am checking results. What call was entered for `CC1(C)S[C@@H]2[C@H](NC(=O)[C@H](NC(=O)N3CCN(S(C)(=O)=O)C3=O)c3ccccc3)C(=O)N2[C@H]1C(=O)O` ?
Output: FALSE

Task: Hello, I am checking results. What call was entered for `Cc1cc(Nc2ccccc2C(=O)O)ccc1Cl` ?
Output: FALSE

Task: Hello, I am checking results. What call was entered for `COc1ccc(CCNC[C@H](O)c2ccc(O)cc2)cc1OC` ?
Output: FALSE

Task: Hello, I am checking results. What call was entered for `FCOC(C(F)(F)F)C(F)(F)F` ?
Output: FALSE

Task: Hello, I am checking results. What call was entered for O=C(O)CN(CC(=O)O)CC1=CC2C(=CC1=O)Oc1cc(O)c(CN(CC(=O)O)CC(=O)O)cc1C21OC(=O)c2ccccc21 (configuration not stated) ?
Output: TRUE

Task: Hello, I am checking results. What call was entered for `CC[C@H](C)[C@@H]1NC(=O)[C@H](Cc2ccc(O)cc2)NC(=O)[C@@H](N)CSSC[C@@H](C(=O)N2CCC[C@H]2C(=O)N[C@@H](CC(C)C)C(=O)NCC(N)=O)NC(=O)[C@H](CC(N)=O)NC(=O)[C@H](CCC(N)=O)NC1=O` ?
Output: FALSE

Task: Hello, I am checking results. What call was entered for CN1c2cc(O)c(N=NC(N)=O)cc2CC1S(=O)(=O)O (configuration not stated) ?
Output: FALSE

Task: Hello, I am checking results. What call was entered for CCCN(CC)C(CC)C(=O)Nc1c(C)cccc1C (configuration not stated) ?
Output: FALSE

Task: Hello, I am checking results. What call was entered for `C[C@]12CCC(=O)C[C@@H]1CC[C@@H]1[C@@H]2CC[C@]2(C)C=CC[C@@H]12` ?
Output: FALSE

Task: Hello, I am checking results. What call was entered for `O=P(O)(O)C(O)(Cc1cnc2ccccn12)P(=O)(O)O` ?
Output: FALSE

====

PROTOCOL_DESCRIPTION: qHTS assay to test for compound auto fluorescence at 590 nm (red) in HepG2 cell free culture (AID 720684)
MEASUREMENT_CONDITIONS: cell-free medium autofluorescence, red 540/590 nm; series mostly up to 46 µM
Source text: U.S. Tox21 Program National Center for Advancing Translational Sciences [NCATS] NIH Chemical Genomics Center [NCGC] U.S. Environmental Protection Agency [EPA] National Institutes of Environmental Health Sciences [NIEHS] National Toxicology Program [NTP] U.S. Food and Drug Administration [FDA] Tox21 Assay Overview: Compound auto fluorescence often interferes with screening of the compound library against various biological targets and signaling pathways. […] This assay includes the red fluorescence data. […]
Activity calls are given as the source filed them. Calls follow the shape of the dose curve; as a rule, active = well fitted curve in the direction sought with a large enough effect in the repeat runs; inconclusive = weak or mixed curves; inactive = flat fitted curve, though single readings scatter.
MEASURE_NAME: outcome

Some solved entries appear below for comparison.
>  <COMPOUND>
CCCCCCCCCCCCCCCCCCCCCCO

>  <outcome>
inactive

$$$$
>  <COMPOUND>
Cc1c(Cl)cccc1Nc1ncccc1C(=O)O

>  <outcome>
inactive

$$$$
>  <COMPOUND>
O=C1c2ccccc2C(=O)C1c1ccc(Cl)cc1

>  <outcome>
inactive

$$$$
>  <COMPOUND>
C[C@]12CCC(=O)C=C1CC[C@@H]1[C@@H]2[C@@H](O)C[C@@]2(C)[C@H]1CC[C@]2(O)C(=O)COP(=O)(O)O

>  <outcome>
inactive

$$$$

Task: Hello, please tell me recorded outcome for this one: `CC(=O)O[C@H]1C[C@@]2(C)[C@@H](C[C@@H](O)[C@H]3[C@@]4(C)CC[C@@H](O)[C@@H](C)[C@@H]4CC[C@@]32C)/C1=C(\CCC=C(C)C)C(=O)O`
Output: inactive

Task: Hello, please tell me recorded outcome for this one: CN[C@@H]1[C@@H](O)[C@@H](O[C@@H]2[C@@H](O)[C@H](O[C@H]3O[C@H](CN)[C@@H](O)[C@H](O)[C@H]3O)[C@@H](N)C[C@H]2NC(=O)C(O)CN)OC[C@]1(C)O (stereo not given in full)
Output: inactive

Task: Hello, please tell me recorded outcome for this one: `COC(=O)[C@H]1[C@H]2C[C@@H]3c4[nH]c5cc(OC)ccc5c4CCN3C[C@H]2C[C@@H](OC(=O)/C=C/c2cc(OC)c(OC)c(OC)c2)[C@@H]1OC`
Output: inactive

Task: Hello, please tell me recorded outcome for this one: `FC(F)(F)C(F)(F)C(F)(F)C(F)(F)C(F)(F)C(F)(F)F`
Output: inactive

Task: Hello, please tell me recorded outcome for this one: `C=C1C(=C/C=C2\CCC[C@]3(C)[C@@H]([C@H](C)CCCC(C)(C)O)CC[C@@H]23)C[C@@H](O)C[C@@H]1O`
Output: inactive

Task: Hello, please tell me recorded outcome for this one: `CC1=C[C@H](O)CC(C)(C)[C@H]1/C=C/C(C)=C/C=C/C(C)=C/C=C/C=C(C)/C=C/C=C(C)/C=C/C1=C(C)C[C@@H](O)CC1(C)C`
Output: inactive

Task: Hello, please tell me recorded outcome for this one: `CC(C)C(=O)OCC(=O)[C@@]12O[C@H](C3CCCCC3)O[C@@H]1C[C@H]1[C@@H]3CCC4=CC(=O)C=C[C@]4(C)[C@H]3[C@@H](O)C[C@@]12C`
Output: inactive

Task: Hello, please tell me recorded outcome for this one: `CC[C@@]1(O)C[C@H](O[C@H]2C[C@H](N(C)C)[C@H](O[C@H]3C[C@H](O)[C@H](O[C@H]4CCC(=O)[C@H](C)O4)[C@H](C)O3)[C@H](C)O2)c2c(cc3c(c2O)C(=O)c2c(O)cccc2C3=O)[C@H]1C(=O)OC`
Output: inactive

Task: Hello, please tell me recorded outcome for this one: CC1CC(OC(=O)C(O)c2ccccc2)CC(C)(C)C1 (stereo not given)
Output: inactive

Task: Hello, please tell me recorded outcome for this one: `CC1=C(/C=C/C(C)=C/C=C/C(C)=C/C=C/C=C(C)/C=C/C=C(C)/C=C/C2=C(C)C[C@@H](O)CC2(C)C)C(C)(C)C[C@H](O)C1`
Output: inactive

Task: Hello, please tell me recorded outcome for this one: `CC(=O)OCC(=O)[C@@]1(O)[C@H](C)C[C@H]2[C@@H]3C[C@H](F)C4=CC(=O)C=C[C@]4(C)[C@H]3[C@@H](O)C[C@@]21C`
Output: inactive
